# Test system: CAKI-1 renal
# ASSAY_TEXT: NCI tumour cell line growth inhibition, 48 h
READOUT_LABEL: TGI

[[record]]
molecule = "O=C1c2ccccc2C(=O)c2c(O)c(O)cc(O)c21"
readout_label = "TGI"
assay_result = "> 100 µM"

[[record]]
molecule = "Cc1cc(C)nc(SC2=C(Nc3cccc(Cl)c3)C(=O)N(Cc3ccccc3)C2=O)n1"
readout_label = "TGI"
assay_result = "> 170 µM"

[[record]]
molecule = "COC(=O)C1C(=O)O[C@@H](c2ccc(OC)cc2OC)C1C(=O)OC (some centres undefined)"
readout_label = "TGI"
assay_result = "> 100 µM"

[[record]]
molecule = "CO[C@H](C(=O)N[C@@H](CCCCNC(=O)OCc1ccccc1)C(=O)OC(C)(C)C)[C@@H]1Cc2cc3cc(OC4CC(OC5CC(O)C(O)C(C)O5)C(O)C(C)O4)c(C)c(O)c3c(O)c2C(=O)[C@H]1OC1CC(OC2CC(OC3CC(C)(O)C(O)C(C)O3)C(O)C(C)O2)C(O)C(C)O1 (some centres undefined)"
readout_label = "TGI"
assay_result = "3.42 µM"


====

# Test system: 786-0 renal
# ASSAY_TEXT: NCI tumour cell line growth inhibition, 48 h
READOUT_LABEL: TGI

[[record]]
compound = "COc1cc(CCCC(O)COc2cccc3c2C2(O)CCCCCC32)cc(OC)c1 (stereo not given)"
assay_result = "28.7 µM"

[[record]]
compound = "CC(C)N(c1cc2c(cc1F)c(=O)c(C(=O)O)cn2-c1ccc(N2CCN(C)CC2)cn1)C(C)C"
assay_result = "> 100 µM"

[[record]]
compound = "O=C(O)/C(Cl)=C(\\Cl)C(=O)Nc1ccccc1"
assay_result = "> 100 µM"

[[record]]
compound = "CC[C@H](C)C(=O)O[C@H]1CCC=C2C=C[C@H](C)C(CCC3C[C@@H](O)CC(=O)O3)[C@H]21 (stereo not given in full)"
assay_result = "> 100 µM"

[[record]]
compound = "Cc1ccc2sc3c(NCCCNCCO)nc4ccccc4c3c(=O)c2c1"
assay_result = "3.23 µM"

[[record]]
compound = "Cc1ccc(C(=O)NC2CCCCC2)cc1-c1ccc(C(=O)NCC2CC2)cc1"
assay_result = "> 25 µM"

[[record]]
compound = "CCCCCCCCCC(=O)OCC1OC(n2cc(F)c(=O)[nH]c2=O)C(N)C(OC(=O)CCCCCCCCC)C1O (stereo not given)"
assay_result = "32.9 µM"

[[record]]
compound = "O=c1[nH]n(Cc2ccccc2CCl)c2ccc([N+](=O)[O-])cc12"
assay_result = "> 100 µM"

[[record]]
compound = "CN(CCC(=O)O)S(=O)(=O)c1ccccc1"
assay_result = "> 100 µM"

[[record]]
compound = "CCNc1nc(N2CC(=O)Nc3cc(OC)ccc32)c2ccccc2n1"
assay_result = "> 100 µM"


====

# Tested on: HS 578T breast
# ASSAY_TEXT: NCI tumour cell line growth inhibition, 48 h
READOUT_LABEL: GI50

[[record]]
compound = "Cc1cc(C)nc(SC2=C(Nc3cccc(Cl)c3)C(=O)N(Cc3ccccc3)C2=O)n1"
assay_result = "> 170000 nM"

[[record]]
compound = "COc1ccc2c(c1)Cc1c-2c(NN)nc2ccccc12"
assay_result = "35800 nM"

[[record]]
compound = "CO[C@H](C(=O)N[C@@H](CCCCNC(=O)OCc1ccccc1)C(=O)OC(C)(C)C)[C@@H]1Cc2cc3cc(OC4CC(OC5CC(O)C(O)C(C)O5)C(O)C(C)O4)c(C)c(O)c3c(O)c2C(=O)[C@H]1OC1CC(OC2CC(OC3CC(C)(O)C(O)C(C)O3)C(O)C(C)O2)C(O)C(C)O1 (some centres undefined)"
assay_result = "1050 nM"

[[record]]
compound = "CN(C)CC1CCn2c(c(C3=C(c4cn(C)c5ccccc45)C(=O)NC3=O)c3ccccc32)C1 (centres undefined)"
assay_result = "2310 nM"

